System: Saccharomyces cerevisiae
protocol-text: protein stability index of tFT-peptide fusion (C-terminal peptide) (PSI (0-1 scale)); higher = more stable (slower turnover)
condition-set: genetic background: das1 deletion; temperature: 30 C
Documented protein stability index across a set of sequences
// print number alone

INSERT INTO measurements (residue_codes, target_desc, readout_kind, readout_value) VALUES
  ('PSIQHDYTMEGW [ATG3 C-terminal 12 aa]', 'Saccharomyces cerevisiae', 'protein stability index', 0.723),
  ('DDSKILIEHLSE [PET54 C-terminal 12 aa]', 'Saccharomyces cerevisiae', 'protein stability index', 0.697),
  ('DKIDVVLKKISQ [ECM15 C-terminal 12 aa]', 'Saccharomyces cerevisiae', 'protein stability index', 0.709),
  ('EEANEDEEEDDW [MYO5 C-terminal 12 aa]', 'Saccharomyces cerevisiae', 'protein stability index', 0.683),
  ('PGPISFLPVIPI [YLR402W C-terminal 12 aa]', 'Saccharomyces cerevisiae', 'protein stability index', 0.709);

Identify the measured protein stability index of VAKKRLSSRSKP [YNL162W-A C-terminal 12 aa] for Saccharomyces cerevisiae.
0.715

----------
Tested on: Saccharomyces cerevisiae
protocol-text: protein stability index of tFT-peptide fusion (C-terminal peptide) (PSI (0-1 scale)); higher = more stable (slower turnover)
condition-set: genetic background: wild type; temperature: 30 C
Documented protein stability index across a set of sequences
// print number alone

Previously resolved entries follow.
INSERT INTO results (residue_codes, readout_value) VALUES
  ('AGTGAHGLREPR', 0.706),
  ('RRVLVVPCIWHM', 0.327),
  ('AKEENQRKYTRR', 0.637),
  ('VRFKDFDDLGSL', 0.704),
  ('RVEGKNNKEVCI', 0.742);

Tell me the measured protein stability index of GFGRRGQFGGTG , please.
0.574

Tell me the measured protein stability index of LGGWVGGRGVRG , please.
0.717

Tell me the measured protein stability index of PPPPGPGSAPPP , please.
0.59

Tell me the measured protein stability index of MHLRFYFLKTDV , please.
0.597

Tell me the measured protein stability index of LPASAPFPLSPP , please.
0.7

Tell me the measured protein stability index of RATTDGGRGGRR , please.
0.696

Tell me the measured protein stability index of LCSRICGVVARA , please.
0.613

Tell me the measured protein stability index of VAPPPAPFPPIP , please.
0.627

Tell me the measured protein stability index of APPPLLPLRPFR , please.
0.606

----------
Test system: Saccharomyces cerevisiae
protocol-text: protein stability index of tFT-peptide fusion in deletion strain of DOA10 (PSI (0-1 scale)); higher = more stable (slower turnover)
Documented protein stability index across a set of sequences
// print number alone

Previously resolved entries follow.
INSERT INTO results (residue_codes, readout_value) VALUES
  ('CLVSLPILLFCR', 0.25),
  ('ELVSLPILLFFR', 0.633),
  ('RVTRLDFIYFRI', 0.596);

Then there is this sequence:
Identify the measured protein stability index of RVCRLDAIYFRI for Saccharomyces cerevisiae.
0.638

----------
Documented protein stability index across a set of sequences
Tested on: Saccharomyces cerevisiae
protocol-text: protein stability index of tFT-peptide fusion (C-terminal peptide) (PSI (0-1 scale)); higher = more stable (slower turnover)
condition-set: genetic background: wild type; temperature: 30 C
// print number alone

Previously resolved entries follow.
INSERT INTO results (residue_codes, target_desc, readout_value) VALUES
  ('LGSSPPPTLPPP', 'Saccharomyces cerevisiae', 0.701),
  ('CIARPSGNRSYL', 'Saccharomyces cerevisiae', 0.714),
  ('IQKNSGHPMKEA', 'Saccharomyces cerevisiae', 0.711),
  ('PKAMRPKLVVFR', 'Saccharomyces cerevisiae', 0.682),
  ('PLPAPPTPPLPP', 'Saccharomyces cerevisiae', 0.763);

Identify the measured protein stability index of SFQLVFLCVLIW for Saccharomyces cerevisiae.
0.218

Identify the measured protein stability index of SRPSPPPRRPLG for Saccharomyces cerevisiae.
0.759

Identify the measured protein stability index of VGCGGRGGRRGW for Saccharomyces cerevisiae.
0.599

Identify the measured protein stability index of LYAHVPSYRVSA for Saccharomyces cerevisiae.
0.593

Identify the measured protein stability index of GIYARPRPTQCP for Saccharomyces cerevisiae.
0.672

Identify the measured protein stability index of PPLPPLPPLPPP for Saccharomyces cerevisiae.
0.72

Identify the measured protein stability index of FLFLLLFLLLCC for Saccharomyces cerevisiae.
0.407

Identify the measured protein stability index of PSRPPPTPPLPP for Saccharomyces cerevisiae.
0.629

Identify the measured protein stability index of EDKETETSVNQK for Saccharomyces cerevisiae.
0.676

Identify the measured protein stability index of PLSPPAPSPAPR for Saccharomyces cerevisiae.
0.644

Identify the measured protein stability index of NTIPRVTPDKSQ for Saccharomyces cerevisiae.
0.642
